- METHOD NOTES: Human HepG2 cell viability assay in 384 well format
- Assay type: toxicity, cell-based
- Set-up: dose 125 nL, time 70.5 hour; concentration not given beside the values
- REPORTED CONDITIONS: HepG2 cells, read-out: Inhibition
MEASURED ENDPOINT: cytotoxicity at 70.5 h (%)
API: value field is a number in %; no unit string.

# cytotoxicity at 70.5 h of COc1ccc(CNC(=O)c2nn(C)c3c2CS(=O)(=O)CC3)cc1 = -7.69

# cytotoxicity at 70.5 h of O=C(NC1CC1)N1CC[C@H]2[C@H]1CCN2c1ncccn1 = -6.35

# cytotoxicity at 70.5 h of CC(C)c1noc(C(C)N2CCN(Cc3ccco3)CC2)n1 (stereo unspecified) = -9.38

# cytotoxicity at 70.5 h of Cc1nc(CN2CC(=O)N(C)c3ccccc3C2=O)no1 = -1.75

# cytotoxicity at 70.5 h of Cn1nc2c(cc1=O)CN(Cc1coc(-c3cccs3)n1)CC2 = -7.48

# cytotoxicity at 70.5 h of O=C(NCCc1c[nH]cn1)c1ccccc1C1CCNC1 (stereo unspecified) = 18

# cytotoxicity at 70.5 h of Cc1cc2n(n1)[C@@H](C(F)(F)F)C[C@@H](C1CCN(C(=O)C(C)C)CC1)N2 = -1.78

# cytotoxicity at 70.5 h of CCS(=O)(=O)Nc1cnn(Cc2cccc(C)c2)c1 = -3.36

# cytotoxicity at 70.5 h of CC1(C)CN(C(CNS(N)(=O)=O)c2ccc(Cl)cc2)CCO1 (stereo unspecified) = -3.76

# cytotoxicity at 70.5 h of O=C(NCc1ccccc1F)NCC(O)c1cccc(F)c1 (stereo unspecified) = -10.3

# cytotoxicity at 70.5 h of Cc1cccc(N2CCC3(CCCN3Cc3cnn(C)c3C)CC2)n1 = 2.08

# cytotoxicity at 70.5 h of NC(=O)CN1CCC(C(=O)NCc2ccc3nonc3c2)CC1 = -14.2

# cytotoxicity at 70.5 h of Cc1cc(=O)[nH]c(-c2cccc(CN3CCCN4CCCC4C3)c2)n1 (stereo unspecified) = -5.83

# cytotoxicity at 70.5 h of Cc1sc(-n2cnnn2)c(C(=O)NC(C)C)c1C = -10.9

# cytotoxicity at 70.5 h of Cn1c(CC2CCS(=O)(=O)C2)nnc1SCCOc1cccc(Cl)c1 (stereo unspecified) = -11.2

# cytotoxicity at 70.5 h of CCOCc1ccc(NC(=O)N2CCCC2c2nncn2C)cc1 (stereo unspecified) = -6.88

# cytotoxicity at 70.5 h of COc1cccc(CN2CCCCCC2c2cccc(C)c2)c1O (stereo unspecified) = 6.46

# cytotoxicity at 70.5 h of O=C1NCCN1CCNCC1(O)CCCN(CCC2CCCCC2)C1=O (stereo unspecified) = -4.14

# cytotoxicity at 70.5 h of CCN(CC)C(C)CNC(=O)c1cccnc1Oc1cccnc1 (stereo unspecified) = -5.14

# cytotoxicity at 70.5 h of CC(C)(C)n1cc(C(=O)NCCN2CCOCC2)c2cccnc21 = 6.12

# cytotoxicity at 70.5 h of Cc1cc(CN2CCc3nc(C(C)C)nc(O)c3CC2)c(C)s1 = -0.545

# cytotoxicity at 70.5 h of CC(C)c1cc(NC(=O)CN2CCCC2Cn2cccn2)on1 (stereo unspecified) = -1.57

# cytotoxicity at 70.5 h of COc1cc(C(=O)N2CCO[C@H]3[C@H](OCC4CC4)CC[C@@H]32)ccc1F = -5.96

# cytotoxicity at 70.5 h of N#Cc1ccc(Nc2nc3c(s2)C(=O)CN(CC2CC2)C3)cc1 = -4.09

# cytotoxicity at 70.5 h of O=C(O)c1cc2c(nc1O)CC(c1cccs1)CC2=O (stereo unspecified) = -3.98

# cytotoxicity at 70.5 h of CC(=O)N1CCC(c2nccnc2-c2ccc(C(=O)O)cc2)CC1 = 20

# cytotoxicity at 70.5 h of COc1ccc(CN2C[C@@H](CN(C)C)[C@@H](CO)C2)c(Cl)c1OC = -7.01

# cytotoxicity at 70.5 h of O=C(NC1CC1)C(c1ccccc1)N1CCN(Cc2ccc(Cl)s2)CC1 (stereo unspecified) = -3.83

# cytotoxicity at 70.5 h of CC(C)c1nccc(C2CC(=O)Nc3n[nH]c(C4CCC4)c32)n1 (stereo unspecified) = 2.19

# cytotoxicity at 70.5 h of O=C(NCc1nc2cc(F)ccc2[nH]1)c1ccc[nH]1 = 17.9

# cytotoxicity at 70.5 h of CC(C)c1nnc2sc(CC3CCS(=O)(=O)CC3)nn12 = -8.54

# cytotoxicity at 70.5 h of CC(C)(N)CN1CCC(c2nnc(CN3CCCC3)n2C2CC2)CC1 = -0.439

# cytotoxicity at 70.5 h of CN(C)C(=O)CN1CCC2(C1)CN(CC1CCOCC1)C2 = -2.25

# cytotoxicity at 70.5 h of Cc1nc2ncnn2c(C)c1CCC(=O)Nc1cccn(C)c1=O = -15.3

# cytotoxicity at 70.5 h of Cn1ccnc1SCCNC(=O)c1c[nH]nc1C1CCCCC1 = -8.06

# cytotoxicity at 70.5 h of O=C(c1ccc(-n2cccn2)cc1Cl)N1CCCC(O)(CO)C1 (stereo unspecified) = -4.68

# cytotoxicity at 70.5 h of CNC(=O)C1CCCCN1C(=O)c1sc(-c2ccc(C)o2)nc1C (stereo unspecified) = 3.27

# cytotoxicity at 70.5 h of COc1ccc(C(=O)NCCCNc2ccc(C(F)(F)F)cn2)cc1 = -17.2

# cytotoxicity at 70.5 h of Cn1cc(C[C@H]2[C@H](N3CCOCC3)CCN2C(=O)c2ccc[nH]2)cn1 = -20.8

# cytotoxicity at 70.5 h of O=C(CCc1nc2ccccc2[nH]1)NC1CCOC2(CCOCC2)C1 (stereo unspecified) = 20.1

# cytotoxicity at 70.5 h of CN(C)C(=O)c1cnc2n1CCN(Cc1cccnc1)C2 = 4.75

###

- METHOD NOTES: Human HepG2 cell viability assay in 384 well format
- Format: toxicity, cell-based
- Design: dose 125 nL, time 70.5 hour; concentration not given beside the values
- REPORTED CONDITIONS: HepG2 cells, read-out: Inhibition
Hi there, I'd appreciate the recorded cytotoxicity at 70.5 h for every entry that follows.
API: value field is a number in %; no unit string.

# cytotoxicity at 70.5 h of O=C1CC(CNc2cncc(Br)c2)c2ccccc2N1 (stereo unspecified) = 3.03

# cytotoxicity at 70.5 h of Cc1n[nH]c(C)c1CCC(=O)NCC1CCCN(C2CCCC2)C1 (stereo unspecified) = 30.3

# cytotoxicity at 70.5 h of CC(=O)Nc1nc(C2CCN(CC(N)=O)CC2)cs1 = -3.74

# cytotoxicity at 70.5 h of O=C(c1ccco1)N1CCCC2(CN(Cc3ccoc3)CCO2)C1 (stereo unspecified) = -0.421

# cytotoxicity at 70.5 h of Cc1ccc(C(=O)NCc2ccc(N3CCCC(C(N)=O)C3)cc2)o1 (stereo unspecified) = -14.6

# cytotoxicity at 70.5 h of CC(=O)N1CCCN(C(=O)c2csc(-c3ccc(C)cc3C)n2)CC1 = -4.64

# cytotoxicity at 70.5 h of CN1CC2(COCCN(c3ncccn3)C2)OCC1=O (stereo unspecified) = -11.5

# cytotoxicity at 70.5 h of Cc1cccc(CN2CCC3(CCCN(CC(=O)N(C)C)C3)C2)n1 (stereo unspecified) = 7.75

# cytotoxicity at 70.5 h of O=C(NCc1ccc(CN2CCCC2)cc1)NCc1ccon1 = -3.38

# cytotoxicity at 70.5 h of CCN1CCN(S(=O)(=O)c2cc(Cl)c(Cl)cc2C)CC1 = -2.4

# cytotoxicity at 70.5 h of CCOCCNC(=O)CCC1CCCO1 (stereo unspecified) = 35.5

###

- METHOD NOTES: Human HepG2 cell viability assay in 384 well format
- Type: toxicity, cell-based
- Set-up: dose 125 nL, time 70.5 hour; concentration not given beside the values
- REPORTED CONDITIONS: HepG2 cells, read-out: Inhibition
MEASURED ENDPOINT: cytotoxicity at 70.5 h (%)
API: value field is a number in %; no unit string.

# cytotoxicity at 70.5 h of Cc1ncsc1CCn1ccnc1-c1cc2n(n1)CCCNC2 = 5.55

# cytotoxicity at 70.5 h of CCc1nc(CCNC(=O)C2CC2)sc1C = -1.22

# cytotoxicity at 70.5 h of C=C(C)Cn1nnc(C2(NC(=O)c3ccccc3)CCCC2)n1 = -8.81

# cytotoxicity at 70.5 h of CCCn1cc(C(=O)N(C)Cc2nc(-c3ccccn3)no2)c(C)n1 = -8.48

# cytotoxicity at 70.5 h of Cc1ccc(NC(=O)[C@H]2C[C@H](C(=O)O)CN(CC(C)C)C2)cn1 = -11.2

# cytotoxicity at 70.5 h of CC(C)OCCNC1(c2ccc(F)cc2)CCOCC1 = -3.2

# cytotoxicity at 70.5 h of O=C(c1cccnc1)N1CCc2c(nc(N3CCCC3)[nH]c2=O)C1 = -4.95

# cytotoxicity at 70.5 h of Cc1noc(C)c1CN1CCO[C@H]2CN(Cc3ccc(F)cc3)C[C@H]21 = 0.623

# cytotoxicity at 70.5 h of CC(NC(=O)N(C)Cc1ccc2c(c1)OCCO2)c1nncn1C (configuration not stated) = -0.921

# cytotoxicity at 70.5 h of O=C(CSCc1ccncc1)NCC1CCN(C2CC2)C1 (configuration not stated) = 1.83

# cytotoxicity at 70.5 h of O=C(c1c[nH]c2ncccc12)N(Cc1ccco1)C1CCCC1 = -3.94

# cytotoxicity at 70.5 h of NS(=O)(=O)c1cccnc1Nc1cccc(Cl)c1Cl = 3.67
